Tested on: c-Src
ASSAY_OVERVIEW: phosphorylation enrichment, bacterial display (enrichment ratio); higher = better substrate or ligand; peptides without Tyr show the background;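 also: 11-residue human phosphosite peptides and single-mutation variants displayed on the E. coli surface, counted by deep sequencing, each peptide's frequency after selection divided by its frequency in the unselected input library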;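 also: frequency after pTyr selection over input frequency; kinase dosed for 20-30% of maximal phosphorylation in three min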
Could you label it Yes if measured phosphorylation enrichment is 0.6 or higher, and No otherwise?

## Input In plain terms: is recorded phosphorylation enrichment at least 0.6 for LWEGSYGKVKE [STK11_Y60_G56W] ?
## Output Yes

## Input Then this sequence: KRPAVYIDEEA [EPM2A_Y304]
## Output No

## Input Then this sequence: KEDPEYKKKFR [FAM161A_Y278_E273K]
## Output No

## Input Then this sequence: RTTIHYNFMCN [TP53_Y234_C229R_YF]
## Output No

## Input Then this sequence: NTGDDYDLYGG [PTPN11_Y63_Y62D]
## Output Yes

## Input Then this sequence: VSTKVYKRFPS [BEST1_Y148_A146K]
## Output No

## Input Then this sequence: TPIFPYLLPKS [PLD2_Y580_T577I_YF]
## Output No

## Input Then this sequence: QPGDIYHQTWA [GBA_Y244]
## Output Yes

## Input Then this sequence: KVGPGSLGSGG [RET_Y826_Y826S]
## Output No

## Input Then this sequence: GTYVIYVRFSG [FLNB_Y1687_G1691S]
## Output No

## Input Then this sequence: VYLGAYDCFLP [SLC22A5_Y486_R488C]
## Output Yes

## Input Then this sequence: RDMMDYMLQGV [CYP21A2_Y259]
## Output Yes

## Input Then this sequence: NTFEKYLGEEF [TF_Y669_YF]
## Output No

## Input Then this sequence: AGHEEYSAMRD [KRAS_Y64_Q61H]
## Output No

## Input Then this sequence: VDGSVYKLHPS [GCK_Y413]
## Output Yes

## Input Then this sequence: EEHIPYTHMNG [INSR_Y1361]
## Output No

## Input Then this sequence: WKGSWYSMRKM [FGB_Y475]
## Output No

## Input Then this sequence: SDQRRYSLIDP [CLIP2_Y972_R977P]
## Output No

## Input Then this sequence: STSFDYCRVPM [BST2_Y8_YF]
## Output Yes

## Input Then this sequence: KERNQYGEVMV [MMP21_Y347]
## Output Yes

## Input Then this sequence: RGKEPYTKKAL [TTC21B_Y160]
## Output Yes

## Input Then this sequence: YDRREYSRFEK [ITGB7_Y758]
## Output Yes

## Input Then this sequence: YGIAQYCCRMG [LRRK2_Y2023]
## Output Yes

## Input Then this sequence: TSSAVYMNLAS [GATAD2B_Y317_I316V]
## Output Yes

## Input Then this sequence: RAHARYCADAC [ACOT4_Y52_R57C]
## Output No

## Input Then this sequence: KYLENYLNCLL [PLD2_Y169_R172C]
## Output No

## Input Then this sequence: EKGEEYGGGGG [TUBA1A_Y451_E447K]
## Output No

---

TESTED_SYSTEM: MERTK (UniProt Q12866)
Sequence (Q12866 whole entry, looked up): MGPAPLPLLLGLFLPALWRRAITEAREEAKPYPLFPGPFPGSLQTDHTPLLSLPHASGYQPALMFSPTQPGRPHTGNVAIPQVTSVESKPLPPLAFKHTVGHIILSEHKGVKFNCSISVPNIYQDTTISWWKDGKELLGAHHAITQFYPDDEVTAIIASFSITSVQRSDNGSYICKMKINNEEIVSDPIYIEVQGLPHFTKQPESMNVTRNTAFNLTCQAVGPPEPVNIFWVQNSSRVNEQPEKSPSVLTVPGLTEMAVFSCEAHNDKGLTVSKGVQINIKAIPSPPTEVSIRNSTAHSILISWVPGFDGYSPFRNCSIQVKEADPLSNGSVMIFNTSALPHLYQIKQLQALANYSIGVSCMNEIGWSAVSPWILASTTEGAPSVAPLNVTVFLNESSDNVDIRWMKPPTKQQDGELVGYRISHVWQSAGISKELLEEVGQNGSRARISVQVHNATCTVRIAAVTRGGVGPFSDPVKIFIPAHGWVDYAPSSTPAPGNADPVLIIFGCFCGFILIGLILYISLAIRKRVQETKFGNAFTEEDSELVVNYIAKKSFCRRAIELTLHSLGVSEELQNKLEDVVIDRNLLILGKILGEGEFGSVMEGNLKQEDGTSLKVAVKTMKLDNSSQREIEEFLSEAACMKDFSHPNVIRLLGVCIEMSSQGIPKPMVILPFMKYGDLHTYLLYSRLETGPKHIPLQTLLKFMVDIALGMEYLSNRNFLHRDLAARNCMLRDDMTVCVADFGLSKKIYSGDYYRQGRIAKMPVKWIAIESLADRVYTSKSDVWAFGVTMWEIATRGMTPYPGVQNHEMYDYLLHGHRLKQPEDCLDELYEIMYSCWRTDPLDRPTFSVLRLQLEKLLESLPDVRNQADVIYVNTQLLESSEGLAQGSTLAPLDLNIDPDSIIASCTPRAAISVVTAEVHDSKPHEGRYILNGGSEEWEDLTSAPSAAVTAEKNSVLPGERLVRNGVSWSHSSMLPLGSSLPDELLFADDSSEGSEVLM
ASSAY_OVERVIEW: phosphorylation enrichment, bacterial display (enrichment ratio); higher = better substrate or ligand; peptides without Tyr show the background
RECORDED_ENDPOINT: phosphorylation enrichment
In your answer, state the number alone without any accompanying words.

## Input Give its phosphorylation enrichment value. Item: HGQVNYEEFVQ [CALM2_Y139_D134H]
## Output 0.92

## Input Then this sequence: ITVPAYFNDSQ [HSPA9_Y196]
## Output 0.456

## Input Then this sequence: FADIAYNFRHR [PAH_Y166_G171R_YF]
## Output 0.405

## Input Then this sequence: QEALEYFMKQV [PIK3CA_Y1038_M1043V]
## Output 0.289

## Input Then this sequence: TLQSMSGCDVG [HLA-B_Y123_Y123S]
## Output 0.421

## Input Then this sequence: EKLQKYYRKNP [EHHADH_Y682_Q685K]
## Output 0.394

## Input Then this sequence: SEDSEYYRAFE [CASQ2_Y178_K180R]
## Output 0.523

## Input Then this sequence: FSPPFYHRNCM [HGD_Y334_R330S_YF]
## Output 0.535

## Input Then this sequence: QAPPIYLDVLG [NTRK1_Y791_V790I]
## Output 3.35

## Input Then this sequence: NRVEIYDKTVE [CYFIP1_Y108_E109D]
## Output 0.4

## Input Then this sequence: GLETSYIEDNC [PAH_Y24_Q20L]
## Output 0.497

## Input Then this sequence: FSGQVYRQRRK [TH_Y230_D227G]
## Output 1

## Input Then this sequence: ASIVDYNIIGW [MYH7_Y588_G584S]
## Output 0.498

## Input Then this sequence: SLFNGYVYSGM [NEIL3_Y71_V76M]
## Output 0.548

## Input Then this sequence: AEFGLYAAMVR [VSX2_Y222_G223A_YF]
## Output 2.69

## Input Then this sequence: SLVVPYEPPEV [TP53_Y220_V216L]
## Output 0.595

## Input Then this sequence: TDHLRYFDSNK [ARAP1_Y359]
## Output 0.466

## Input Then this sequence: EREYKYGAHNY [OAT_Y50]
## Output 0.397

## Input Then this sequence: CRAVKYLQMVG [AVPR2_Y117]
## Output 0.379

## Input Then this sequence: PPLMLYNPTTF [EGFR_Y270_YF]
## Output 1

## Input Then this sequence: LAIERYVVVSK [RHO_Y136_C140S]
## Output 0.515

## Input Then this sequence: QSSALYEDRYL [ASS1_Y83]
## Output 1.1

## Input Then this sequence: CDSSGYWTPEE [PAPPA2_Y908]
## Output 0.494

## Input Then this sequence: NPPGMYPVTGP [LPP_Y346]
## Output 0.348

## Input Then this sequence: AGHEEYSAMRD [KRAS_Y64_Q61H]
## Output 0.532

## Input Then this sequence: KFEDVYVRICL [B3GALNT1_Y269_G271R]
## Output 0.436

## Input Then this sequence: SVTCAYSPALN [TP53_Y126_T125A]
## Output 0.525

## Input Then this sequence: RPGSGYTNIMR [PKLR_Y564]
## Output 0.579

## Input Then this sequence: MIRSAYALRGL [CPS1_Y590_G593R]
## Output 0.423

---

TESTED_SYSTEM: Fyn (UniProt P06241)
Sequence (P06241 whole entry, looked up): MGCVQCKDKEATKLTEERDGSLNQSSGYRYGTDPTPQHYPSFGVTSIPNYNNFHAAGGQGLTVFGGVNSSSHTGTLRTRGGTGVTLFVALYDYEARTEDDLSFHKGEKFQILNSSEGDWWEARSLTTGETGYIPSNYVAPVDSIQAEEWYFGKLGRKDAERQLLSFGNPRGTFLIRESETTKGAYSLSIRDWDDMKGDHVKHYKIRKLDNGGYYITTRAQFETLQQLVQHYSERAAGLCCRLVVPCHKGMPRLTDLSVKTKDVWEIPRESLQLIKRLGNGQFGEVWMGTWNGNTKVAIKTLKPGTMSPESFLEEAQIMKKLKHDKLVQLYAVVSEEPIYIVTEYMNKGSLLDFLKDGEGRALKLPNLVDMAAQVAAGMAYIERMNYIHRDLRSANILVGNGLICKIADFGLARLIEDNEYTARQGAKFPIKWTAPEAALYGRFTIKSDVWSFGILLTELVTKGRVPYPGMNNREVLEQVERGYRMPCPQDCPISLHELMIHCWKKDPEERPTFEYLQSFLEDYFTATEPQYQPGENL
ASSAY_OVERVIEW: phosphorylation enrichment, bacterial display (enrichment ratio); higher = better substrate or ligand; peptides without Tyr show the background
Exercise: state measured phosphorylation enrichment for each of the sequences provided.
In your answer, state the number alone without any accompanying words.

## Input Give its phosphorylation enrichment value. Item: NFFEFYVDDPL [GCHFR_Y48_P53L_YF]
## Output 0.436

## Input Then this sequence: QKFMAYLSQGW [HLCS_Y236_G241W]
## Output 0.639

## Input Then this sequence: KFEDVYVRICL [B3GALNT1_Y269_G271R]
## Output 0.452

## Input Then this sequence: AGQERYRAITS [RAB11B_Y73]
## Output 0.554

## Input Then this sequence: IHFAIYLLKYS [ARMC9_Y107]
## Output 0.516

## Input Then this sequence: YTHSDYQYSQR [PKP2_Y166]
## Output 0.403

## Input Then this sequence: NDPMEYAKQHG [ASS1_Y163_L160P]
## Output 0.389

## Input Then this sequence: PNAYIYVVQLP [L1CAM_Y420_A415P]
## Output 0.941

## Input Then this sequence: RSAGKYDVYLI [MECP2_Y120]
## Output 1.31

## Input Then this sequence: AIYEGYALPHA [ACTC1_Y171_P166A]
## Output 15.9

## Input Then this sequence: HRLSTYTKMLF [CHST8_Y251]
## Output 0.443

## Input Then this sequence: NTVLGYFIGCI [GARS1_Y408_R412C]
## Output 0.491

## Input Then this sequence: WHHTFYNELRV [ACTA1_Y93]
## Output 0.502

## Input Then this sequence: GEAEQYVGGGG [FAT4_Y4980]
## Output 0.465

## Input Then this sequence: CTTIHYNYKCN [TP53_Y234_M237K]
## Output 0.454

## Input Then this sequence: AGGTRYRYVSQ [UCN3_Y95_R91G]
## Output 0.491

## Input Then this sequence: QRTMKYTTATG [MCCC1_Y41]
## Output 0.475

## Input Then this sequence: RTTIHYNFMCN [TP53_Y234_C229R_YF]
## Output 0.527

## Input Then this sequence: ARRHPYFFAPE [ALB_Y172_Y174F]
## Output 0.58

## Input Then this sequence: DDSNLYINVKL [MTHFD1_Y52]
## Output 0.443

## Input Then this sequence: SVTCTYTPALN [TP53_Y126_S127T]
## Output 0.49

## Input Then this sequence: RRDRDYTNLPS [CSF1R_Y923_E920D]
## Output 0.551

## Input Then this sequence: VVIVLYFSLWK [SLC6A2_Y249]
## Output 0.241

## Input Then this sequence: PDGVEYLKNDP [GRIN3A_Y831]
## Output 0.851

## Input Then this sequence: SENAFYLSPHI [COL6A3_Y2827_D2831H]
## Output 0.487

## Input Then this sequence: WHHTFYNELCV [ACTC1_Y93_R97C]
## Output 0.574

## Input Then this sequence: ISSLLYELLEE [TRPC6_Y896_R895L]
## Output 2.14

## Input Then this sequence: IITDYYVDMKF [MPP4_Y567_V562I]
## Output 1.01

## Input Then this sequence: SVGGLYRDMGA [CBX8_Y321_G317V]
## Output 0.408
